Kindly supply the reported TGI values for the records listed here.
- Test system: SN12C
- experimental_protocol: Growth inhibition of human SN12C cells incubated for 48 hrs by sulforhodamine B assay
- Assay type: functional
- particulars: read-out: TGI
Returns: string containing the numeric result and its unit.

# example entries with known answers
molecular_string	TGI
c1ccc2[nH]c(-c3ccc(Nc4nc(N5CCCCC5)nc(N5CCOCC5)n4)cc3)nc2c1	53.2 µM
Clc1ccc(-c2nc(Nc3ccc(-c4nc5ccccc5[nH]4)cc3)nc(N3CCOCC3)n2)cc1	2.39 µM
c1ccc(-c2nc(Nc3ccc(-c4nc5ccccc5[nH]4)cc3)nc(N3CCOCC3)n2)cc1	3.83 µM

Give TGI for Fc1ccc(-c2nc(Nc3ccc(-c4nc5ccccc5[nH]4)cc3)nc(N3CCOCC3)n2)cc1
23 µM
